tested on: RARa:RXR (NR concentration 270 nM, RXRa partner concentration 90 nM); assay: PBM binding z-score (relative to random genomic background probes); higher = stronger binding; sequences stand for … in GC…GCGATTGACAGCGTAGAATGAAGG
# PBM binding z-score binned as bottom range: < 1; center range: ≥ 1 and < 3; top range: ≥ 3

Solved entries (count: 3):
                       sequence_entry                              study_target  assigned_label
0  ACAAGCAGGCCAAGTTTGGGTCACTCAAACAAAG  RARa:RXR (NR concentration 270 nM, RXRa partner concentration 90 nM)    center range
1  TCTTGTAGATCAATAGAGGTCAAGAAAGTGCGCT  RARa:RXR (NR concentration 270 nM, RXRa partner concentration 90 nM)       top range
2  TTACCAAGGAGAAGGTCGTTGATCCCTCTGTAGA  RARa:RXR (NR concentration 270 nM, RXRa partner concentration 90 nM)    center range

Looking at `CGTCCAAGGTCAGAGAGTTCAGTGAATGCCGAGT` , which class would you pick? top range

Looking at `GGAATGAGGGCATTCGAGTTGATAGCATGGCGAT` , which class would you pick? center range

Looking at `CCTTATGGGTCACTGACAGGTTATAGCATTTGGA` , which class would you pick? top range

Looking at `GCTCCGAGGACAAGGTCAGAGCTTTGTCCGTAGA` , which class would you pick? center range

Looking at `GCATATAGGTTATACAAGGTGAAAGTCCGATTGT` , which class would you pick? center range

* * *

system: PXR:RXRa (NR concentration 270 nM, RXRa partner concentration 90 nM); experiment: PBM binding z-score (relative to random genomic background probes); higher = stronger binding; sequences stand for … in GC…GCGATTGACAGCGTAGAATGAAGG
# PBM binding z-score binned as class 0: < 0.7; class 1: ≥ 0.7 and < 3; class 2: ≥ 3

>>> df
                       sequence_entry  assigned_label
0  CCGACTGGGGCAGAAAGGTTACCATTCCATCCGG         class 1
1  ATGTGTAGGTTATCGGGTCATTCAGTTTGCGCAT         class 2
2  CCTGCTTGGTCATGGTCAGCTAATCTACAGTATG         class 0
3  CCGAGTAGGTTATGGGGGATTCAGGCAACGGTGA         class 1
4  CCTTACGGGTCACTGACAAGTTATAGCATTTGGA         class 1

Looking at `TCTATTAGTTGAGTAGGGCAACCGAAACAGCGGA` , which class would you pick? class 0

Looking at `TGTCAAAGTTCAAATGTAACGTAAGTATCCACAC` , which class would you pick? class 2

Looking at `TTACCAAGGTGAGGGTCGTTGATCCCTCTGTAGA` , which class would you pick? class 1

Looking at `TCTTGAAGATCAAAGGTTAAGAAAGCCGAAGCCT` , which class would you pick? class 1

Looking at `GCTCGGAGGACAAGGGCAGAGCTTTGTCCGTAGA` , which class would you pick? class 0

Looking at `GCATATAGATAATACAAGGTGAAAGTCCGATTGT` , which class would you pick? class 0

Looking at `TTACCAAGGTGAGCTGTGGTCGTTGATCCAACTC` , which class would you pick? class 0

Looking at `GCGACTGGGGCTTCAGCAGGTTACCATAACTTAA` , which class would you pick? class 0

Looking at `TTACCGAGGTGAGCTGAGGTCGTTGATCCAACTC` , which class would you pick? class 2

Looking at `ACTAACAGGCCAAGTTTGGGTCACTCAAACAAAG` , which class would you pick? class 1
